measured.endpoint: melting point

> print(dat)
                                   compound  recorded.measurement
1  CS(=O)(=O)c1cn(-c2ncc(-c3ccccc3F)cn2)c2cc(C(=O)N3CCOCC3)ccc12         267 to 270 °C
2  C[S+]([O-])c1cn(-c2ncc(-c3cccc(O)c3)cn2)c2cc(C(=O)N3CCOCC3)ccc12 (stereo not shown)         249 to 253 °C
3  C[S+]([O-])c1cn(-c2ncc(-c3ccccc3F)cn2)c2cc(C(=O)N3CCO[C@H](CO)C3)ccc12 (stereo partly shown)         194 to 198 °C
4  CO[C@H]1CCN(C(=O)c2ccc3c([S+](C)[O-])cn(-c4ncc(-c5ccccc5F)cn4)c3c2)C1 (stereo partly shown)         164 to 166 °C
5  CCc1ccnc(-c2cnc(-n3cc([S+](C)[O-])c4ccc(C(=O)N5CC[C@@H](N)C5)cc43)nc2)c1 (stereo partly shown)         160 to 163 °C
6  CC(C)c1ccnc(-c2cnc(-n3cc([S+](C)[O-])c4ccc(C(=O)N5CC[C@@H](N)C5)cc43)nc2)c1 (stereo partly shown)         264 to 268 °C
7  C[S+]([O-])c1cn(-c2ncc(-c3cccc(Cl)c3)cn2)c2cc(C(=O)N3CCOCC3)ccc12 (stereo not shown)         211 to 213 °C

###

measured.endpoint: melting point

> print(dat)
                                    compound  recorded.measurement
 1  C[S+]([O-])c1cn(-c2ncc(-c3cccnn3)cn2)c2cc(C(=O)N3CCOCC3)ccc12 (stereo not shown) [Example 144]         261 to 265 °C
 2  Cc1ccc(F)c(-c2cnc(-n3cc([S+](C)[O-])c4ccc(C(=O)N5CCOCC5)cc43)nc2)c1 (stereo not shown) [Example 198]         120 to 123 °C
 3  C[S+]([O-])c1cn(-c2ncc(-c3ccccc3)cn2)c2cc(C(=O)N3CCOCC3)ccc12 (stereo not shown) [Example 4]         239 to 242 °C
 4  C[S+]([O-])c1cn(-c2ncc(-c3ccccc3F)cn2)c2cc(C(=O)N3C4CCC3CNC4)ccc12 (stereo not shown) [Example 348]         237 to 240 °C
 5  C[S+]([O-])c1cn(-c2ncc(-c3cc(C#N)cs3)cn2)c2cc(C(=O)N3CCOCC3)ccc12 (stereo not shown) [Example 195]         253 to 256 °C
 6  C[S+]([O-])c1cn(-c2ncc(-c3ccc(F)cc3F)cn2)c2cc(C(=O)N3CCNCC3)ccc12 (stereo not shown) [Example 14]         198 to 201 °C
 7  C[S+]([O-])c1cn(-c2ncc(-c3ccccc3F)cn2)c2cc(C(=O)N3CC4CCC3CN4)ccc12 (stereo not shown) [Example 347]         141 to 144 °C
 8  C[S+]([O-])c1cn(-c2ncc(-c3ccnc(O)c3)cn2)c2cc(C(=O)N3CCOCC3)ccc12 (stereo not shown) [Example 143]         262 to 265 °C
 9  C[S+]([O-])c1cn(-c2ncc(-c3cccc(CO)c3)cn2)c2cc(C(=O)N3CCOCC3)ccc12 (stereo not shown) [Example 188]         193 to 196 °C
10  C[S+]([O-])c1cn(-c2ncc(-c3cccc(C(=O)O)c3)cn2)c2cc(C(=O)N3CCOCC3)ccc12 (stereo not shown) [Example 193]         230 to 235 °C
11  CCc1cccc(-c2cnc(-n3cc([S+](C)[O-])c4ccc(C(=O)N5CCOCC5)cc43)nc2)c1 (stereo not shown) [Example 189]         162 to 165 °C
12  Cc1ccnc(-c2cnc(-n3cc(S(C)(=O)=O)c4ccc(C(=O)N5CC[C@@H](N)C5)cc43)nc2)c1 [Example 340]         157 to 160 °C
13  COC(=O)c1ccc(-c2cnc(-n3cc([S+](C)[O-])c4ccc(C(=O)N5CCOCC5)cc43)nc2)cc1 (stereo not shown) [Example 190]         256 to 258 °C
14  C[S+]([O-])c1cn(-c2ncc(-c3ccccc3F)cn2)c2cc(C(=O)N3CCO[C@@H](CO)C3)ccc12 (stereo partly shown) [Example 219]         206 to 210 °C
15  C[S+]([O-])c1cn(-c2ncc(-c3ccnc(F)c3)cn2)c2cc(C(=O)N3CCOCC3)ccc12 (stereo not shown) [Example 187]         285 to 288 °C
16  CN(C)c1ccnc(-c2cnc(-n3cc([S+](C)[O-])c4ccc(C(=O)N5CCOCC5)cc43)nc2)c1 (stereo not shown) [Example 210]         213 to 217 °C
17  C[S+]([O-])c1cn(-c2ncc(-c3ccc(C(N)=O)cn3)cn2)c2cc(C(=O)N3CCOCC3)ccc12 (stereo not shown) [Example 199]         288 to 290 °C
18  Cc1cc(-c2cnc(-n3cc([S+](C)[O-])c4ccc(C(=O)N5CCOCC5)cc43)nc2)ccn1 (stereo not shown) [Example 186]         230 to 232 °C
19  COc1ccnc(-c2cnc(-n3cc([S+](C)[O-])c4ccc(C(=O)N5CCOCC5)cc43)nc2)c1 (stereo not shown) [Example 141]         216 to 220 °C

###

Measured inhibition at 1 µM accompanies every entry in the list below.
Target: human PDE4B1 (Homo sapiens, UniProt Q07343)
Construct: host or cells: Sf9 cells
Sequence (Q07343 whole entry): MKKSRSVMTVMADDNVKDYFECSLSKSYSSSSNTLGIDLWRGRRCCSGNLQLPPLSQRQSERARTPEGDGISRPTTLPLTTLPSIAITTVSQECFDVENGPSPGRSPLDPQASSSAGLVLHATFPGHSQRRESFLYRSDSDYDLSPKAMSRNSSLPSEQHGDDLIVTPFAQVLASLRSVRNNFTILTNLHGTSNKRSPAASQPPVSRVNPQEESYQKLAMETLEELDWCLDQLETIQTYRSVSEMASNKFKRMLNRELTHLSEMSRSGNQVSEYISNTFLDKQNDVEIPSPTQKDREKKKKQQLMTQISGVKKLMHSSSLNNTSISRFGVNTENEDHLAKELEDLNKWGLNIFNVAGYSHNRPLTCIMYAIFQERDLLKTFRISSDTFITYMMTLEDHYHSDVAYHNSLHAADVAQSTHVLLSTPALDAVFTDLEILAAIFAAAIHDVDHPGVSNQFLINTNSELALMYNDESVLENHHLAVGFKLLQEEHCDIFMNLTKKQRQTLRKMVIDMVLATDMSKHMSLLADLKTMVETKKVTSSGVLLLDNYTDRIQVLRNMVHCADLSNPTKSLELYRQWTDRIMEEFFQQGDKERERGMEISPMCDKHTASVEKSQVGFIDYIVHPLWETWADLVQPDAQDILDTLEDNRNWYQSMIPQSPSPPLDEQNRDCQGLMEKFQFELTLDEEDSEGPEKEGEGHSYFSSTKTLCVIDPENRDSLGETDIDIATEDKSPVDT
Assay: cAMP HTRF assay to determine the activity of hPDE4B1
Type: biochemical
Settings: inhibition of PDE4B at a test concentration of 1 μM
measured.endpoint: inhibition at 1 µM (%)

> print(dat)
                                   compound  display.unit  recorded.measurement
1  COc1ccc(-c2cnc(-n3cc([S+](C)[O-])c4ccc(C(=O)N5CCOCC5)cc43)nc2)c(F)c1 (stereo not shown) [Example 39]             %                   105
2  COc1ccc(F)c(-c2cnc(-n3cc([S+](C)[O-])c4ccc(C(=O)N5CCOCC5)cc43)nc2)c1 (stereo not shown) [Example 38]             %                   102
3  CN(C)C(=O)c1ccc2c([S+](C)[O-])cn(-c3ncc(-c4ccccc4F)cn3)c2c1 (stereo not shown) [Example 52]             %                    91
4  CS(=O)(=O)c1cn(-c2ncc(-c3ccccc3)cn2)c2cc(C(=O)N3CCOCC3)ccc12 [Example 10]             %                    74

###

Biological target: human PDE4B1 (Homo sapiens)
Construct: host or cells: Sf9 cells
Assay: cAMP HTRF assay to determine the activity of hPDE4B1
Type: biochemical
Details: inhibition of PDE4B at a test concentration of 1 μM
measured.endpoint: inhibition at 1 µM (%)

> print(dat)
                                   compound   measured.endpoint  recorded.measurement
1  CN(CC1(O)CC1)C(=O)c1ccc2c([S+](C)[O-])cn(-c3ncc(-c4ccccc4F)cn3)c2c1 (stereo not shown)  inhibition at 1 µM                    30
2  Cc1cccc(-c2cnc(-n3cc([S+](C)[O-])c4ccc(C(=O)N5CCOCC5)cc43)nc2)c1 (single isomer, unassigned) [Example 154]  inhibition at 1 µM                    98
3  C[S+]([O-])c1cn(-c2ncc(-c3ccccc3F)cn2)c2cc(C(=O)N3CCC3)ccc12 (stereo not shown)  inhibition at 1 µM                    77
4  C[S+]([O-])c1cn(-c2ncc(-c3ccccc3F)cn2)c2cc(C(=O)NCCO)ccc12 (stereo not shown)  inhibition at 1 µM                    37

###

Target: human PDE4B1 (Homo sapiens, UniProt Q07343)
Construct: host or cells: Sf9 cells
Assay: TR-FRET assay using the LANCE Ultra cAMP kit to determine the activity of hPDE4B1
Assay type: biochemical
Settings: test concentration 10 μM (marked in cell), read-out: Inhibition in % (inhibition of PDE4B)
Excerpt: TR-FRET Assay Using the LANCE® Ultra cAMP Kit to Determine the Activity of hPDE4B1 The effects of the compounds on the activity of the human PDE4B1 was quantified by measuring the production of 5′AMP from cAMP using a human recombinant enzyme expressed in Sf9 cells and the LANCE® Ultra cAMP kit, a TR-FRET detection method from PerkinElmer. The human PDE4B1 enzyme was purchased from SignalChem Lifesciences (Catalog# P92-31BG, Lot# H296-2). […]
measured.endpoint: inhibition at 10 µM (%)

> print(dat)
                                   compound    measured.endpoint  recorded.measurement
1  C[S+]([O-])c1cn(-c2ncc(-c3ccccc3F)cn2)c2cc(C(=O)N3CC[C@H](CO)C3)ccc12 (stereo partly shown)  inhibition at 10 µM                    99
2  Cc1ccnc(-c2cnc(-n3cc([S+](C)[O-])c4ccc(C(=O)N(C)CCO)cc43)nc2)c1 (stereo not shown)  inhibition at 10 µM                    87
3  Cc1ccnc(-c2cnc(-n3cc(S(C)(=O)=O)c4ccc(C(=O)N5CC[C@@H](N)C5)cc43)nc2)c1  inhibition at 10 µM                   100
4  CS(=O)(=O)c1cn(-c2ncc(-c3ccccc3F)cn2)c2cc(C(=O)N3C[C@H]4C[C@@H]3CO4)ccc12  inhibition at 10 µM                    92
5  CCc1ccc(F)c(-c2cnc(-n3cc(C(C)O)c4ccc(C(=O)N(C)CC(N)=O)cc43)nc2)c1 (stereo not shown)  inhibition at 10 µM                   109
6  CS(=O)(=O)c1cn(-c2ncc(-c3cc(C4CC4)ccn3)cn2)c2cc(C(=O)N3CCOCC3)ccc12  inhibition at 10 µM                    90
7  CN(CC(N)=O)C(=O)c1ccc2c([S+](C)[O-])cn(-c3ncc(-c4cc(N)ccn4)cn3)c2c1 (stereo not shown)  inhibition at 10 µM                   101
